biological target: UniProtKB O88703; test: inside-out patch clamp, Xenopus oocytes
Sequence (O88703 whole entry): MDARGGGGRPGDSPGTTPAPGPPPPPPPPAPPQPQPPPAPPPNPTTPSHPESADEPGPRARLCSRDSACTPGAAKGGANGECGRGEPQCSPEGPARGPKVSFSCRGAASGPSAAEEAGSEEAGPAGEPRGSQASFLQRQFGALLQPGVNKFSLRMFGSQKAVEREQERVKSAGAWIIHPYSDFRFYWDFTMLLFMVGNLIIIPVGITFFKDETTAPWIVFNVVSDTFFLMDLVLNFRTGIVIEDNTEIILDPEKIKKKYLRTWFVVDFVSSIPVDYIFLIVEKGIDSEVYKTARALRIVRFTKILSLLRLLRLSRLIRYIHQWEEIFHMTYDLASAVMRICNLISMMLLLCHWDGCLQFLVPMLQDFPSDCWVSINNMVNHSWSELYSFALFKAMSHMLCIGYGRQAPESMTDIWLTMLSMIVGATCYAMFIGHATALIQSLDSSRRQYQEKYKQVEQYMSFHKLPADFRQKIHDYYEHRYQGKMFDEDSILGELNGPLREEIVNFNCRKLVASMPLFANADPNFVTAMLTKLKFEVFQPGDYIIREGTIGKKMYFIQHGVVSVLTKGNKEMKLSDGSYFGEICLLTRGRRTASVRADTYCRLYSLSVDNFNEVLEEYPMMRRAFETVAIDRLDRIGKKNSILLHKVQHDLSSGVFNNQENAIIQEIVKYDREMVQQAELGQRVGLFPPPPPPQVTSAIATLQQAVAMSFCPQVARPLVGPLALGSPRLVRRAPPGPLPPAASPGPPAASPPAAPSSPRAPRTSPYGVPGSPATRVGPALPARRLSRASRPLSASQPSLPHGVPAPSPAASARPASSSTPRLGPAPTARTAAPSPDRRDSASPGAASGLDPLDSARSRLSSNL
observable: EC50 (µM)
One number for each entry, in µM.

-- ask Retrieve EC50 measured for CCCCCCCC(=O)OC[C@H](COP(=O)(O)O[C@@H]1[C@H](O)[C@H](O)[C@@H](OP(=O)(O)O)[C@H](OP(=O)(O)O)[C@H]1O)OC(=O)CCCCCCC [diC8 PI(4,5)P2] and print it.
-- reply 10.9
